- TEST: Enzyme inhibition dissociation constant for choline acetyl transferase (ChAcT) was determined
ASSAY ENDPOINT: pKi
Expect pKi as a plain number equal to -log10 of the molar concentration.

If you can, please state the reported pKi value of "C[N+](C)(C)c1cccc(O)c1O" . 1.82

---

- TEST TARGET: High-affinity choline transporter 1 (Rattus norvegicus)
- TEST: Inhibition of high affinity choline uptake at concentration of 1 uM
ASSAY ENDPOINT: IC50 (µM)
Numbers only; they are read as µM.

1. C[N+](C)(C)c1cccc(O)c1O | 83

If you can, please state the reported IC50 value of C[N+](C)(C)CC(O)c1ccc(O)c(O)c1 (configuration not stated) . 221
